- systemTested: human AR (Homo sapiens, UniProt P10275)
- Sequence (P10275 1-920): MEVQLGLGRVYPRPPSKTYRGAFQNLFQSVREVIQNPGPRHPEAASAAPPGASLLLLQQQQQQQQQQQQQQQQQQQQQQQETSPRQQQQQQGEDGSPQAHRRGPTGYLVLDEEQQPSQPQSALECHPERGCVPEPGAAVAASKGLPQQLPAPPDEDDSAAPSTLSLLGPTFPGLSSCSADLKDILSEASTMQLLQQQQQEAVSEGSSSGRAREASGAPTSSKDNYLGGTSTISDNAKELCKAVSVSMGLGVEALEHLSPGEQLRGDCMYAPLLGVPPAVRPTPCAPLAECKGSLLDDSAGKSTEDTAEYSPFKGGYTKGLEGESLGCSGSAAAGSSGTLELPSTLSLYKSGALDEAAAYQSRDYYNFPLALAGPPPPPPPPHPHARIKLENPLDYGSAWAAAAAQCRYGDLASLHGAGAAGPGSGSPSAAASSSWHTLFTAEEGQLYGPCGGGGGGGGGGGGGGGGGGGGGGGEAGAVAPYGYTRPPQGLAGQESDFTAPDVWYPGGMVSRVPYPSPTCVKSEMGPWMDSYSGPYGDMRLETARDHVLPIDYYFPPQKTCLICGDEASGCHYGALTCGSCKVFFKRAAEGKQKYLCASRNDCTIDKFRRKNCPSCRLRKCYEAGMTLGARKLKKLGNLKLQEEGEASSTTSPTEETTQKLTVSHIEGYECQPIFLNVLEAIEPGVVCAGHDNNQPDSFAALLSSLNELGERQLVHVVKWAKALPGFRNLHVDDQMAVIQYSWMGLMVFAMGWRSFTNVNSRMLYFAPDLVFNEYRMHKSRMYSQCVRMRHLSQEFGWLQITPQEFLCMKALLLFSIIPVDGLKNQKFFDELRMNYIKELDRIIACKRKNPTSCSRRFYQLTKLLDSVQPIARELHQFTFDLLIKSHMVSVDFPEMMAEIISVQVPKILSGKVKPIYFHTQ
- testName: AR antagonist yeast reporter gene assay (competition with testosterone at EC50)
- Assay type: cell-based
- conditionInfo: strain pdr5Δpdr10Δ, with testosterone […] nM
propertyMeasured: IC50 (nM)

[[record]]
structurestring = "C[C@]12CCC3=C4CCC(=O)C=C4CC[C@H]3[C@@H]1CC[C@@]2(O)CC#N"
outputunit = "nM"
measuredvalue = 30200


----------
Here, each record is paired with measured EC50 data.
- systemTested: UniProtKB Q92731
- testName: ERβ agonist yeast lacZ reporter gene assay
- Assay type: cell-based
- conditionInfo: agonist assay; strain cwp1Δcwp2Δ; read-out: EC50
propertyMeasured: EC50 (nM)

[[record]]
structurestring = "C[C@]12CC[C@@H]3c4ccc(O)cc4CC[C@H]3[C@@H]1C[C@@H](O)[C@@H]2O"
measuredvalue = 1.22

[[record]]
structurestring = "Cc1c(-c2ccc(O)cc2)nn(-c2ccc(O)cc2)c1-c1ccc(OCCN2CCCCC2)cc1.Cl.Cl"
measuredvalue = 2730


----------
- systemTested: human ERβ (Homo sapiens, UniProt Q92731)
- Sequence (Q92731 whole entry): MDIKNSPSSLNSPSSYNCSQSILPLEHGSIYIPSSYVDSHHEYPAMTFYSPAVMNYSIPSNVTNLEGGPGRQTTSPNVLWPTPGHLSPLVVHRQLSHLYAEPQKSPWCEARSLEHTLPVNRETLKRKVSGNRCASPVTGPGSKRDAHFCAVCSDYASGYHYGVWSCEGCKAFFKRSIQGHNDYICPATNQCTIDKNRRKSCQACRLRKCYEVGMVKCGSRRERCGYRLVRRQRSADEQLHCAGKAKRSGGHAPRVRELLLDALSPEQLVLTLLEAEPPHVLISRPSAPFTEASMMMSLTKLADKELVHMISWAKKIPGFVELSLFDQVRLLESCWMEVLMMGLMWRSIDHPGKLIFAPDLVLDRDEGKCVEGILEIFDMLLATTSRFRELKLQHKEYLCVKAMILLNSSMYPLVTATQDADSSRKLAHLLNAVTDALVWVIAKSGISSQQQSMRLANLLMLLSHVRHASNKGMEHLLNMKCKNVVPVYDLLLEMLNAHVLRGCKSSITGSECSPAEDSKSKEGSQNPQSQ
- testName: ERβ agonist yeast lacZ reporter gene assay
- Format: cell-based
- conditionInfo: agonist assay; strain W303a; read-out: EC50
EC50: recorded values
propertyMeasured: EC50 (µM)

[[record]]
structurestring = "Cc1c(-c2ccc(O)cc2)nn(-c2ccc(O)cc2)c1-c1ccc(OCCN2CCCCC2)cc1.Cl.Cl"
systemtested = "human ERβ (Homo sapiens, UniProt Q92731)"
measuredvalue = 19.2

[[record]]
structurestring = "C[C@]12CC[C@@H]3c4ccc(O)cc4CC[C@H]3[C@@H]1C[C@@H](O)[C@@H]2O"
systemtested = "human ERβ (Homo sapiens, UniProt Q92731)"
measuredvalue = 0.034


----------
- systemTested: human AR (Homo sapiens, UniProt P10275)
- testName: AR agonist yeast lacZ reporter gene assay
- Format: cell-based
- conditionInfo: agonist assay; strain W303a; read-out: EC50
pEC50: −log10 of the molar value.
propertyMeasured: pEC50

[[record]]
structurestring = "C[C@]12CCC3=C4CCC(=O)C=C4CC[C@H]3[C@@H]1CC[C@@]2(O)CC#N"
propertymeasured = "pEC50"
measuredvalue = 5.01


----------
- systemTested: human AR (Homo sapiens)
- Sequence (P10275 1-920): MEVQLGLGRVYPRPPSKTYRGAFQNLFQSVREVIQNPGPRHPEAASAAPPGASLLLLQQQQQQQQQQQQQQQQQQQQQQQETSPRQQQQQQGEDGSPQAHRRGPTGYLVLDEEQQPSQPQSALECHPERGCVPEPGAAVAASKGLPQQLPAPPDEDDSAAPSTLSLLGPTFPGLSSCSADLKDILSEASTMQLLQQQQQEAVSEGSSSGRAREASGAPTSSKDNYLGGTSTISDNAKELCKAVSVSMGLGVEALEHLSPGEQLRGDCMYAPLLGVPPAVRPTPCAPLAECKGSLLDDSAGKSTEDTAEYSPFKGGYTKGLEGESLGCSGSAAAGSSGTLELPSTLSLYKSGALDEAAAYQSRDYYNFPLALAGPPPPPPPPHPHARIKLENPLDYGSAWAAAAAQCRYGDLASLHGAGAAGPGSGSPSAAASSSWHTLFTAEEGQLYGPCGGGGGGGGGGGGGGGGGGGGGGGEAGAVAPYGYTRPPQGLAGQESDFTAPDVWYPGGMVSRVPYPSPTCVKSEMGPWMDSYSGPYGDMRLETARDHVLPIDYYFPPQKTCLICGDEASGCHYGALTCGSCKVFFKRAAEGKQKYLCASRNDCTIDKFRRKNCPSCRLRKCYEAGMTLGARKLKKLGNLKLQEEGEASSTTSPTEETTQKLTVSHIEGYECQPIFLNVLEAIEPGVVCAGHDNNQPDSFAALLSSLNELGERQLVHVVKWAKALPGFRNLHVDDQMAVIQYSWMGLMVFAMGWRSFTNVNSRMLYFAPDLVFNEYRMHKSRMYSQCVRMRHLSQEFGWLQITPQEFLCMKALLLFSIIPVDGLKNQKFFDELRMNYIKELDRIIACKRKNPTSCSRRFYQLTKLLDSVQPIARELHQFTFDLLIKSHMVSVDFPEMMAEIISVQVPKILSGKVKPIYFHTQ
- testName: AR antagonist yeast reporter gene assay (competition with testosterone at EC50)
- Format: cell-based
- conditionInfo: strain cwp1Δpdr5Δ, with testosterone […] nM
propertyMeasured: IC50 (nM)

[[record]]
compound = "C[C@]12CCC3=C4CCC(=O)C=C4CC[C@H]3[C@@H]1CC[C@@]2(O)CC#N [DNG, Dienogest]"
measuredvalue = 38100


----------
- systemTested: human AR (Homo sapiens)
- Sequence (P10275 1-920): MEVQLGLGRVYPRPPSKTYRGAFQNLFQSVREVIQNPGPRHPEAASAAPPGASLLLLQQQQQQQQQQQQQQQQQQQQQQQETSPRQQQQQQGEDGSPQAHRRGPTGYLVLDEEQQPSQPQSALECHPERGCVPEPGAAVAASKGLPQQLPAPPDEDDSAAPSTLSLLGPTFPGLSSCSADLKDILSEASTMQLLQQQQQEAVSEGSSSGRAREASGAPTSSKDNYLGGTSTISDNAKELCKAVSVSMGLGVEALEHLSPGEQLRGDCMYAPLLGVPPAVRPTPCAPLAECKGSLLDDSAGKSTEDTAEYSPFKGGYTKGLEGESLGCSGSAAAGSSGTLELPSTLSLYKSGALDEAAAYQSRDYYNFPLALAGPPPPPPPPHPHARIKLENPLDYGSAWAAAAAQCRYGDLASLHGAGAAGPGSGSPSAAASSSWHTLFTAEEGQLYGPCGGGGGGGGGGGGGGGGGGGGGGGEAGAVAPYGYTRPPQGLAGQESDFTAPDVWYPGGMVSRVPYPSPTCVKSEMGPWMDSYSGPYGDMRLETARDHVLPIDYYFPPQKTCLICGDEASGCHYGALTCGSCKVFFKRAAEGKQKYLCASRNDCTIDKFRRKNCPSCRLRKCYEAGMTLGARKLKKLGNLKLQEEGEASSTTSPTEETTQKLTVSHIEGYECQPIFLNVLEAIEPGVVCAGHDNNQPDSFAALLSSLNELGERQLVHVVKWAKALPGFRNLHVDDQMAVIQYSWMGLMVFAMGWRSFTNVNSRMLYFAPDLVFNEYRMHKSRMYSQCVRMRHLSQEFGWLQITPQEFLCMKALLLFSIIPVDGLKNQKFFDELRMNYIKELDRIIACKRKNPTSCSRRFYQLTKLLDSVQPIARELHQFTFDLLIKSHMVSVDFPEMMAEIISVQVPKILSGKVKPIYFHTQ
- testName: AR agonist yeast lacZ reporter gene assay
- Type: cell-based
- conditionInfo: agonist assay; strain pdr5Δpdr10Δ; read-out: EC50
pEC50: −log10 of the molar value.
propertyMeasured: pEC50

[[record]]
structurestring = "C[C@]12CCC3=C4CCC(=O)C=C4CC[C@H]3[C@@H]1CC[C@@]2(O)CC#N"
systemtested = "human AR (Homo sapiens)"
measuredvalue = 5.61


----------
- systemTested: UniProt P06401
- Sequence (P06401 1-933): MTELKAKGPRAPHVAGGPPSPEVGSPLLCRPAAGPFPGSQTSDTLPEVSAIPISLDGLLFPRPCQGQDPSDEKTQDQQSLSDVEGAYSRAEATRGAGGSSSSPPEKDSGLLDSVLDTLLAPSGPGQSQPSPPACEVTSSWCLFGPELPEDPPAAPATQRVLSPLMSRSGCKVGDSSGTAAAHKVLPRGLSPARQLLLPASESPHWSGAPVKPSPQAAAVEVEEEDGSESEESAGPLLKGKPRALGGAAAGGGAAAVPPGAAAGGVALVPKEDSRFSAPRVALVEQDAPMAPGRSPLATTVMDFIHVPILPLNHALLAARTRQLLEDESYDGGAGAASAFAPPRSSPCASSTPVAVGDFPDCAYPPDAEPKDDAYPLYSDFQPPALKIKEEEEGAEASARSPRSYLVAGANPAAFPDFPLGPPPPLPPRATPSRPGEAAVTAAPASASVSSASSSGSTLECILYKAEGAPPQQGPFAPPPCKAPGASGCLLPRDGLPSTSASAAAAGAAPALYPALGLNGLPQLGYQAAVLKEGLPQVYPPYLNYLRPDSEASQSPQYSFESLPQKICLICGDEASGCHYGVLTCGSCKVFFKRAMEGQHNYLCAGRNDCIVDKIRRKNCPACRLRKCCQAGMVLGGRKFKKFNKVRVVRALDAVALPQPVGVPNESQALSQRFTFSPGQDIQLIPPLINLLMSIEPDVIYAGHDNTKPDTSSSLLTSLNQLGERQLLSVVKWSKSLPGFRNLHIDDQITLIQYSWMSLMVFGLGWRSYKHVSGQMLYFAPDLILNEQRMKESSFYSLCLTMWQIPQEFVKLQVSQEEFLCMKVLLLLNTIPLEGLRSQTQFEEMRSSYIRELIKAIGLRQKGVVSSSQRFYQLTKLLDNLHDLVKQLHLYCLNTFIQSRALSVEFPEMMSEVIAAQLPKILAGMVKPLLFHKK
- testName: PR agonist yeast lacZ reporter gene assay
- conditionInfo: EC50, agonist assay; strain W303a
pEC50: −log10 of the molar value.
propertyMeasured: pEC50

[[record]]
structurestring = "C#C[C@]1(O)C=C[C@H]2[C@@H]3CCC4=CC(=O)CC[C@@H]4[C@H]3CC[C@@]21CC"
measuredvalue = 6.66

